- SYSTEM: T1, B Lymphocyte Stimulator, soluble form (human) (human, UniProt Q9Y275 134-285, biotinylated with NHS-biotin where used as biotinylated B Lymphocyte Stimulator)
- T1 construct: Coated on plastic, captured on streptavidin plates, amine-coupled to a CM5 chip or free in solution, depending on the assay; also called BLyS; immobilized B Lymphocyte Stimulator
- RUN_DESCRIPTION: phage display panning on soluble BLyS
READOUT_KIND: binding result

Check out these entries, answers already filled in.
>  <BINDER>
BAB2080 (scFv) scFv: KVQLVQSGGGLVKPGGSLRLSCAASGFTFSNYGMHWVRQAPGKGLEWVALISYDGSNKYYADSVKGRFTISRDNSKNTLYLQMNSLRAEDTAVYYCAKLNSLRGGHDYWGRGTLVTVSSGGGGSGGGGSGGGGSQSVLTQPPSVSAAPGQKVTISCSGSTSNIGNNYVSWYQQHPGKAPKLMIYDVSKRPSGVPDRFSGSKSSNSASLDISGLQSEDEADYYCAAWDDSLSEFLFGTGTKLTVLG

>  <binding result>
binds

$$$$
>  <BINDER>
BAB2001 (scFv) scFv: GVQLVQSGAEVRKPGASVKVSCKPSGYPFSGNYIHWVRQAPGQGPEWMGWINPNSGDTKYSQKFQGWVTMTRDTSVSTVYMELNRLKSDDTAIYYCAREQYDTLTGSPYGMDVWGKGTLVTVSSGGGGSGGGGSGGGGSDIQMTQSPSTLSASIGDRVTITCRASQGINNYLAWYQQKPGRAPKLLIYAASSLQSGVPSRFSGSGSGTDFTLTISSLQPEDFATYYCLQDSDYPLTFGGGTKLEIKR

>  <binding result>
binds

$$$$
>  <BINDER>
BAB2015 (scFv) scFv: QVQLVQSGAEVKKPGSSVKVSCKASGGTLGNYGISWVRQAPGQGLEWMGAIIPNFGTTNYVQKFQGRVTMTTDTSTSTAYMELRSLRSDDTAVYYCARGASSGWYDYYYYMDVWGKGTMVTVSSGGGGSGGGGSGGGGSDIQMTQSPSTLSASIGDRVTITCRASEGIYHWLAWYQQKPGKAPKLLIYKASSLASGAPSRFSGSGSGTDFTLTISSLQPDDFATYYCQQYSNYPLTFGGGTKLEIRR

>  <binding result>
binds

$$$$
>  <BINDER>
BAB2087 (scFv) scFv: QVQLVQSGAEVKKPGASVKVSCKASGFAFSSYDINWVRQAPGQGLEWMGWMNPKSGKTGYAQNFQGRVTMTRNTSISTAYMELSSLKSEDTAVYFCARGFTGYDILTDYYSVDYFDSWGRGTLVTVSSGGGGSGGGGSGGGGSALPVLTQPPSVSVAPGQTARITCGGSSIGRKSVHWYQQSPGQAPVLVVYDDSDRPSGIPERFSGSNSGDTATLTISRVEVGDEADYYCQVWDINSDHVVFGGGTKLTVLG

>  <binding result>
binds

$$$$

Please turn your attention to the following entry.
Prompt: Entry BAB2016 (scFv) scFv: EVQLVQSGGGLVQPGGSLRLSCAASGFTFSSYWMSWVRQAPGKGLEWVANIKQDGSGKYYVDSVKGRFTISRDNAKNSLYLQMNSLRAEDTAVYYCARDPRYDILTGYLYGMDVWGQGTMVTVSSGGGGSGGGGSGGGGSQSVLTQPASVSGSPGQSITISCTGTSSDVGGYNYVSWYQQHPGKAPKLMIYEGSKRPSGVSNRFSGSKSGNTASLTISGLQAEDEADYYCSSYTTRSTRVFGGGTKLTVLG : reported binding result = ?
Response: binds

The reported measurements were obtained from patent US20110293610A1.
